The reported measurements were obtained from PubChem BioAssay (EPA / NIEHS).

Read-out: Intercellular Adhesion Molecule 1 (ICAM1), ICAM1 (gene 3383)
experiment: BSK_3C_ICAM1: BioMAP Diversity Plus: 3C Assay for Intercellular Adhesion Molecule 1 (ICAM1) Biomarker Activity (AID 2283003)
experimental-setup: primary human endothelial cells (HUVEC); actives raise or lower the signal
Active and inactive are the calls of the source. The calls were made as follows: active = hit-call score of the fitted dose curve at least 0.9, where 1 is the maximum; inactive = score below 0.9.
Give your call using only these classes: yes = active, no = inactive

These recorded examples may help you get a feel for the data.
{"molecule": "c1ccc2c(c1)ccc1cc3c(ccc4ccccc43)cc12", "group-label": "no"}
{"molecule": "S=C(NC1CCCCC1)NC1CCCCC1", "group-label": "no"}
{"molecule": "CCCCNc1ccc(NCCCC)c2c1C(=O)c1ccccc1C2=O", "group-label": "no"}
{"molecule": "CCOc1nc(F)cc2nc(S(=O)(=O)Nc3c(Cl)cccc3C(=O)OC)nn12", "group-label": "no"}
{"molecule": "Nc1ccc(N)c(Cl)c1", "group-label": "no"}
{"molecule": "O=C(Cl)c1cc(C(=O)Cl)cc(C(=O)Cl)c1", "group-label": "yes"}
{"molecule": "c1ccc(-c2ccccn2)nc1", "group-label": "no"}
{"molecule": "CCCCC/C=C\\C/C=C\\CCCCCCCC(=O)OC", "group-label": "yes"}

q: Could you kindly confirm the outcome this assay logged for c1ccc2c(c1)ccc1ncccc12 ?
a: no

q: Another: CCCCCCCCc1ccc(Nc2ccc(CCCCCCCC)cc2)cc1
a: no

q: Another: C=CC(=O)OCC(Br)CBr (stereo not given)
a: yes

q: Another: CC1OC1C1CCC2(C)OC2C1 (stereo not given)
a: no

* * *

experiment: ATG_VDRE_CIS: Attagene CIS-FACTORIAL HepG2 Assay for human Vitamin D Receptor Element (VDRE) (AID 2282968)
experimental-setup: HepG2 VDRE cis-reporter transcription, actives raise or lower the signal
Calls of active or inactive are those of the source. The calls were made as follows: active = hit-call score of the fitted dose curve at least 0.9, where 1 is the maximum; inactive = score below 0.9.
Give your call using only these classes: y = active, n = inactive

These recorded examples may help you get a feel for the data.
{"compound": "CO[Si](OC)(OC)c1ccccc1", "group-label": "n"}
{"compound": "Nc1nc2ccccc2[nH]1", "group-label": "n"}
{"compound": "C=C[Si](C)(C)O[Si](C)(C)C=C", "group-label": "n"}

q: Could you kindly confirm the outcome this assay logged for CC(C)c1ccc(C=O)cc1 ?
a: n

q: Another: Cc1ccc(C2OC[C@@H]3OC(c4ccc(C)cc4)O[C@H]([C@H](O)CO)[C@@H]3O2)cc1 (some centres not stated)
a: n

q: Another: CC1OC1C1CCC2(C)OC2C1 (configuration not stated)
a: n

* * *

experiment: ATG_CRE_CIS: Attagene CIS-FACTORIAL HepG2 Assay for human cAMP Responsive Element (CRE) binding protein 3 (AID 2282926)
experimental-setup: HepG2 CRE cis-reporter, Attagene multiplexed mRNA; actives raise or lower the signal
Active and inactive are the calls of the source. The calls were made as follows: active = hit-call score of the fitted dose curve at least 0.9, where 1 is the maximum; inactive = score below 0.9.
Give your call using only these classes: true for active, false for inactive

{"compound": "CCOC(F)(F)C(F)(F)C(F)(F)C(F)(F)F", "group-label": "false"}
{"compound": "CCC(=O)Oc1ccc(/C(CC)=C(\\CC)c2ccc(OC(=O)CC)cc2)cc1", "group-label": "true"}
{"compound": "C=COCCCC", "group-label": "false"}
{"compound": "Cc1cc(C)c(C)c(O)c1", "group-label": "false"}
{"compound": "COC(=O)c1ccccc1OC", "group-label": "false"}

q: Could you kindly confirm the outcome this assay logged for COC(=O)/C=C\C(=O)O ?
a: false

q: Another: C=C[Si](C)(C)O[Si](C)(C)C=C
a: false

q: Another: CCCCCc1ccc(Cl)cc1
a: false

q: Another: C=CC(=O)NC(C)(C)CS(=O)(=O)O
a: false

q: Another: CC=CCO
a: false

q: Another: CCCCCCCCc1ccc(Nc2ccc(CCCCCCCC)cc2)cc1
a: false

q: Another: C=CC(=O)OCCOC(=O)C=C
a: false

q: Another: C=CCCCCCCCCC(=O)OCCCC
a: false

q: Another: COCCCOCCCOC
a: false

q: Another: CCCCCCCCCCCSCC(=O)O
a: false

q: Another: Cc1oncc1C(=O)Nc1ccc(C(F)(F)F)cc1
a: false

q: Another: NNC(=O)c1cccc(C(=O)NN)c1
a: false

* * *

experiment: ATG_MRE_CIS: Attagene CIS-FACTORIAL HepG2 Assay for human Metal Responsive Element (MRE) (AID 2282954)
experimental-setup: HepG2 MRE cis-reporter transcription, Attagene multiplex; actives raise or lower the signal
The source made the active and inactive calls. How the source made its calls: active means hit-call score of the fitted dose curve at least 0.9, where 1 is the maximum; inactive means score below 0.9.
parameter-measured: outcome

Observe how each entry below is paired with its result.
{"molecule": "C=CCCCCCCCCC(=O)OCCCC", "outcome": "inactive"}
{"molecule": "CC1=NC(C)OC1C (stereo not given)", "outcome": "inactive"}
{"molecule": "CC[C@H]1OC(=O)[C@H](C)[C@@H](O[C@H]2C[C@@](C)(OC)[C@@H](O)[C@H](C)O2)[C@H](C)[C@@H](O[C@@H]2O[C@H](C)C[C@H](N(C)C)[C@H]2O)[C@](C)(O)C[C@@H](C)C(=NOCOCCOC)[C@H](C)[C@@H](O)[C@]1(C)O", "outcome": "inactive"}
{"molecule": "C=CC(C)(CCC=C(C)C)OC(=O)C(C)C (stereo not given)", "outcome": "inactive"}

Next up:
q: # lookup: outcome of O=C1CCCC1
a: inactive

* * *

experiment: ATG_AP_1_CIS: Attagene CIS-FACTORIAL HepG2 Assay for human Activator Protein 1 (AP-1) (AID 2282931)
experimental-setup: HepG2 Attagene cis-factorial AP-1 reporter mRNA; actives raise or lower the signal
Calls of active or inactive are those of the source. Rule for the calls: active = hit-call score of the fitted dose curve at least 0.9, where 1 is the maximum; inactive = score below 0.9.
Give your call using only these classes: YES (active), NO (inactive)

These recorded examples may help you get a feel for the data.
{"compound": "O=P(O)(O)Oc1ccccc1", "group-label": "NO"}
{"compound": "Cc1cccc(C(=O)O)c1", "group-label": "NO"}
{"compound": "CC(C)=CCCC(C)C=O (configuration not stated)", "group-label": "NO"}

Now, please, on to the next compound.
q: Could you kindly confirm the outcome this assay logged for COC(=O)/C=C\C(=O)O ?
a: NO

* * *

experiment: CCTE_Deisenroth_AIME_384WELL_CTox_Active: Cytotoxicity Assessment (CTOX) in CCTE's 384-well Estrogen Receptor Transactivation Assay with AIME metabolic competence (metabolism positive), Deisenroth Lab (AID 2284037);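 also: chemicals first conditioned 2 h by alginate-bound induced rat liver S9 before cells; activity means signal loss indicating cell death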
Protocol: CCTE_Deisenroth_AIME_384WELL (AIME metabolism assay) is a cell-based, single-readout assay that uses VM7Luc4E2, a human mammary gland/breast cell line, with measurements taken at 24 hour after chemical dosing in a 384-well plate.CCTE_Deisenroth_AIME_384WELL_CTox_Active is one of four assay components measured or calculated from the CCTE_Deisenroth_AIME_384WELL assay. […] This assay endpoint, CCTE_Deisenroth_AIME_384WELL_CTox_Active, was analyzed with bidirectional fitting in the ERTA assay. […]
Inconclusive results are not listed. Calls of active or inactive are those of the source. How the source made its calls: active means hit-call score of the fitted dose curve at least 0.9, where 1 is the maximum; inconclusive means response in the unintended direction; inactive means score below 0.9.
parameter-measured: AC50

Observe how each entry below is paired with its result.
{"compound": "O=c1cc(-c2ccccc2)oc2ccccc12", "AC50": "inactive"}
{"compound": "O=C1C(N(CO)C(=O)NCO)N(CO)C(=O)N1CO (stereo not drawn)", "AC50": "inactive"}
{"compound": "CCCCCc1ccc(Cl)cc1", "AC50": "inactive"}
{"compound": "OC1CCCC1", "AC50": "inactive"}
{"compound": "CO[Si](OC)(OC)c1ccccc1", "AC50": "inactive"}

q: # lookup: AC50 of CCCCCCCC[N+](C)(CCCCCCCC)CCCCCCCC
a: 39.3 µM (active)

q: Another: CN(C)c1ccc(C(=N)c2ccc(N(C)C)cc2)cc1
a: 100 µM (active)

q: Another: O=C1CCCC1
a: inactive

q: Another: CC(=O)OC(C)C
a: inactive

q: Another: C=CC(=O)NC(C)(C)CS(=O)(=O)O
a: inactive

q: Another: O=S1(=O)OC(c2ccc(O)cc2)(c2ccc(O)cc2)c2ccccc21
a: inactive

q: Another: CCCCCCCCCCOS(=O)(=O)O
a: 19.8 µM (active)

q: Another: C=C1C2CCC(C2)C1(C)C (stereo not drawn)
a: inactive

* * *

experiment: ATG_GRE_CIS: Attagene CIS-FACTORIAL HepG2 Assay for human Glucocorticoid Response Elements (GRE) (AID 2282947)
experimental-setup: HepG2 GRE cis-reporter, Attagene multiplex mRNA; actives raise or lower the signal
The source made the active and inactive calls. The calls were made as follows: active = hit-call score of the fitted dose curve at least 0.9, where 1 is the maximum; inactive = score below 0.9.
Give your call using only these classes: true (1) (active), false (0) (inactive)

q: Could you kindly confirm the outcome this assay logged for CCCCCC(C)O (stereo unspecified) ?
a: false (0)

* * *

target-or-test-system: human RAR-related Orphan Receptor beta (RORb), RORB (gene 6096) (UniProt Q92753)
Sequence (Q92753 whole entry, looked up): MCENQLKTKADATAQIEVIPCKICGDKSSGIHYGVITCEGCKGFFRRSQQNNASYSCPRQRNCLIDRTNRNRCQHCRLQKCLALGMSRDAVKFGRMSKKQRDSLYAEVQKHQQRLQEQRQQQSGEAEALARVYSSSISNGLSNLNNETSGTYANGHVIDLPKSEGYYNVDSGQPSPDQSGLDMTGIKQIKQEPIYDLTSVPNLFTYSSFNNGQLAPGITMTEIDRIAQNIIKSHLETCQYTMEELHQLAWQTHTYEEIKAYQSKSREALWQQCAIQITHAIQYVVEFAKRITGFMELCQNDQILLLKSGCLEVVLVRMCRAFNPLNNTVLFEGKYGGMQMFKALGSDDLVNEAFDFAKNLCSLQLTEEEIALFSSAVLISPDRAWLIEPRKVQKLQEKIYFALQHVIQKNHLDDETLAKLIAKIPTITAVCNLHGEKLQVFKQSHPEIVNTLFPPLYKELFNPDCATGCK
experiment: ATG_RORb_TRANS: Attagene TRANS-FACTORIAL HepG2 Assay for human RAR-related Orphan Receptor beta (RORb) (AID 2283010)
Records with an inconclusive call do not appear. Activity calls are given as the source filed them. Rule for the calls: active = hit-call score of the fitted dose curve at least 0.9, where 1 is the maximum; inconclusive = response in the unintended direction; inactive = score below 0.9.
parameter-measured: outcome

Observe how each entry below is paired with its result.
{"compound": "CC(CC=O)CCCC(C)(C)O (stereo not given)", "outcome": "inactive"}
{"compound": "CCO[Si](C)(OCC)OCC", "outcome": "inactive"}
{"compound": "CCCCCCOC(=O)C(C)CC (stereo not given)", "outcome": "inactive"}
{"compound": "CC(C)CCCC(C)CC=O (stereo not given)", "outcome": "inactive"}
{"compound": "C=C(C)C(=O)OCCO", "outcome": "inactive"}
{"compound": "CC(=O)OCc1ccco1", "outcome": "inactive"}
{"compound": "O=C1CCCCCCCCCCC(=O)OCCO1", "outcome": "inactive"}
{"compound": "c1c[nH]cn1", "outcome": "inactive"}
{"compound": "CC(C)=CCC/C(C)=C\\C#N", "outcome": "inactive"}
{"compound": "CC=CC(=O)N(CC)c1ccccc1C", "outcome": "inactive"}

q: # lookup: outcome of COC(=O)/C=C/C(C)=C\C=C\C(C)=C\C=C\C=C(C)\C=C\C=C(C)\C=C\C(=O)O
a: inactive
